Each recorded value in this set is attributed to patent US20260125375A1.

target: WT CBL-B (36-427) (Homo sapiens, UniProt Q13191); construct: N-terminal biotinylated WT CBL-B (36-427) and C-CBL (46-435) were captured on a streptavidin (SA) coated sensor chip; assay: Surface Plasmon Resonance (SPR) assay, binding affinity and kinetics, CBL-B; settings: SPR at 10° C., biotinylated WT CBL-B (36-427) on streptavidin chip; geometric mean; read-out: CBL-B SPR Kd (nM) GMean
Reported Kd values follow for various compounds

Compound: Cn1cnnc1[C@@H](c1cccc(-c2n[nH]c3c(C4CCCCN4)nc(C(F)(F)F)cc23)c1)C1CCC1 (single isomer, unassigned) [Example L2]
Kd (nM): 30
//
Compound: CNc1nc(C(F)(F)F)cc2c(-c3cccc(C4(Cc5nncn5C)COC4)c3)n[nH]c12
Kd (nM): 16.1
//
Compound: CN1CC[C@@H](N(C)c2nc(C(F)(F)F)cc3c(-c4cccc([C@H](c5nncn5C)C5CCC5)c4)n[nH]c23)C1
Kd (nM): 24
//
Compound: CC(NC1CCCC1)c1nc(C(F)(F)F)cc2c(-c3cccc([C@H](c4nncn4C)C4CCC4)c3)n[nH]c12 (stereo partly drawn)
Kd (nM): 1.4
//
Compound: C[C@H](NC1CC[C@H]1O)c1nc(C(F)(F)F)cc2c(-c3cccc([C@H](c4nncn4C)C4CCC4)c3)n[nH]c12 (single isomer, unassigned)
Kd (nM): 1.1
//
Compound: Cn1cnnc1[C@@H](c1cccc(-c2n[nH]c3c(CN4CCNCC4)nc(C(F)(F)F)cc23)c1)C1CCC1
Kd (nM): 5.6

* * *

biological target: WT CBL-B (36-427) (Homo sapiens, UniProt Q13191); construct: N-terminal biotinylated WT CBL-B (36-427) and C-CBL (46-435) were captured on a streptavidin (SA) coated sensor chip; test: Surface Plasmon Resonance (SPR) assay, binding affinity and kinetics, CBL-B; settings: SPR at 10° C., biotinylated WT CBL-B (36-427) on streptavidin chip; geometric mean; read-out: CBL-B SPR Kd (nM) GMean
Reported log10 Kd values follow for various compounds
Recorded Metric: log10 Kd (log10 of the value in nM)

Compound: C[C@@H]1CCCN([C@H](C)c2nc(C(F)(F)F)cc3c(-c4cccc(C5(Cc6nncn6C)COC5)c4)n[nH]c23)C1 (single isomer, unassigned)
Recorded Metric: log10 Kd
Numeric Value: 1.05
--
Compound: C[C@H](N[C@@H]1CCC[C@@H]1O)c1nc(C(F)(F)F)cc2c(-c3cccc([C@H](c4nncn4C)C4CCC4)c3)n[nH]c12 (single isomer, unassigned)
Recorded Metric: log10 Kd
Numeric Value: 0.40
--
Compound: Cn1cnnc1[C@@H](c1cccc(-c2n[nH]c3c(CNC4CCNC(=O)C4)nc(C(F)(F)F)cc23)c1)C1CCC1 (single isomer, unassigned) [Example C88]
Recorded Metric: log10 Kd
Numeric Value: 0.68
--
Compound: C[C@@H](N[C@H]1CCOC1)c1nc(C(F)(F)F)cc2c(-c3cccc([C@H](c4nncn4C)C4CCC4)c3)n[nH]c12 (single isomer, unassigned)
Recorded Metric: log10 Kd
Numeric Value: 0.75
--
Compound: Cn1cnnc1CC1(c2cccc(-c3n[nH]c4c(CN5CCNC(=O)C5)nc(C(F)(F)F)cc34)c2)COC1
Recorded Metric: log10 Kd
Numeric Value: 0.48
--
Compound: Cn1cnnc1[C@@H](c1cccc(-c2n[nH]c3c(CNC4CCOCC4)nc(C(F)(F)F)cc23)c1)C1CCC1
Recorded Metric: log10 Kd
Numeric Value: 0.84
--
Compound: C[C@H]1CCCN(Cc2nc(C(F)(F)F)cc3c(-c4cccc([C@H](c5nncn5C)C5CCC5)c4)n[nH]c23)C1
Recorded Metric: log10 Kd
Numeric Value: 0.43
--
Compound: C[C@@H](N[C@H]1CCC(F)(F)C1)c1nc(C(F)(F)F)cc2c(-c3cccc([C@H](c4nncn4C)C4CCC4)c3)n[nH]c12
Recorded Metric: log10 Kd
Numeric Value: 0.49
--
Compound: C[C@@H]1CCCN(Cc2nc(C(F)(F)F)cc3c(-c4cccc(C5(Cc6nncn6C)COC5)c4)n[nH]c23)C1
Recorded Metric: log10 Kd
Numeric Value: 0.58
--
Compound: CCNCc1nc(C(F)(F)F)cc2c(-c3cccc([C@H](c4nncn4C)C4CCC4)c3)n[nH]c12
Recorded Metric: log10 Kd
Numeric Value: 0.75
--
Compound: Cn1cnnc1CC1(c2cccc(-c3n[nH]c4cnc(OC(F)F)cc34)c2)COC1
Recorded Metric: log10 Kd
Numeric Value: 1.35
--
Compound: C[C@H](N[C@@H]1CC[C@@H]1O)c1nc(C(F)(F)F)cc2c(-c3cccc([C@H](c4nncn4C)C4CCC4)c3)n[nH]c12 (single isomer, unassigned)
Recorded Metric: log10 Kd
Numeric Value: -0.40

* * *

Target: C-CBL (residues 46-435) (Homo sapiens)
Construct: Purified CBL-B (residues 36-427) and C-CBL (residues 46-435) proteins from baculovirus-infected insect cells; made in house; host or cells: baculovirus-infected insect cells
Sequence (P22681 46-435): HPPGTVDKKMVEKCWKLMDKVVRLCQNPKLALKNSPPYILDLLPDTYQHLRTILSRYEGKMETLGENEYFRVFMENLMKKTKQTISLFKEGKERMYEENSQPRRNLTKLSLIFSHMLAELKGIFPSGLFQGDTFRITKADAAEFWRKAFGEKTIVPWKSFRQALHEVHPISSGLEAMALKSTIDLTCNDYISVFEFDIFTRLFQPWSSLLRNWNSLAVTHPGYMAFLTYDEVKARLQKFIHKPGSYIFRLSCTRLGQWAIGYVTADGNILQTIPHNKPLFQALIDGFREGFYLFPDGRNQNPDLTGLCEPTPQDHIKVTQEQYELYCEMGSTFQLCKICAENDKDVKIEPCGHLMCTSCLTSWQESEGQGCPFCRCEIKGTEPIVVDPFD
Assay: Ligand Displacement Assay (LDA), HTRF competitive binding against BODIPY-labeled fluorescent tracer, C-CBL
Conditions: geometric mean of the number of tests, read-out: C-CBL Ki (nM) GMean
Recorded Metric: Ki

Molecule: CC(O)c1nc(C2CC2)cc2c(-c3cccc(C4(Cc5nncn5C)COC4)c3)n[nH]c12 (single isomer, unassigned) [Example H6]
Result: 142 nM

Molecule: C[C@H](N[C@H]1CCC[C@@H]1O)c1nc(C(F)(F)F)cc2c(-c3cccc([C@H](c4nncn4C)C4CCC4)c3)n[nH]c12 (single isomer, unassigned)
Result: 5 nM

Molecule: CC1CN(Cc2nc(C(F)(F)F)cc3c(-c4cccc(C5(Cc6nncn6C)COC5)c4)n[nH]c23)CCC1(F)F (single isomer, unassigned) [Example C31]
Result: 112 nM

Molecule: Cn1cnnc1[C@@H](c1cccc(-c2n[nH]c3c(CNC4CCNC(=O)C4)nc(C(F)(F)F)cc23)c1)C1CCC1 (single isomer, unassigned) [Example C88]
Result: 132 nM

Molecule: C[C@H](NC1(CO)CCC1)c1nc(C(F)(F)F)cc2c(-c3cccc([C@H](c4nncn4C)C4CCC4)c3)n[nH]c12 (single isomer, unassigned)
Result: 116 nM

Molecule: Cn1cnnc1[C@@H](c1cccc(-c2n[nH]c3c(C4CCCCN4)nc(C(F)(F)F)cc23)c1)C1CCC1 (single isomer, unassigned) [Example L1]
Result: 439 nM

Molecule: C[C@H](c1nc(C(F)(F)F)cc2c(-c3cccc(C4(Cc5nncn5C)COC4)c3)n[nH]c12)N1CC(F)C1 (single isomer, unassigned)
Result: 47.4 nM

Molecule: CN1CC[C@H](Oc2nc(C(F)(F)F)cc3c(-c4cccc([C@H](c5nncn5C)C5CCC5)c4)n[nH]c23)C1
Result: 87.1 nM

Molecule: Cn1cnnc1CC1(c2cccc(-c3n[nH]c4c(CN5CCC5)nc(C(F)(F)F)cc34)c2)COC1
Result: 232 nM

Molecule: Cn1cnnc1CC1(c2cccc(-c3n[nH]c4c(CN[C@H]5CCOC5)nc(C(F)(F)F)cc34)c2)COC1
Result: 90 nM

Molecule: CC(O)CNC(C)c1nc(C2CC2)cc2c(-c3cccc(C(c4nncn4C)C4CCC4)c3)n[nH]c12 (single isomer, unassigned) [Example H1]
Result: 48.4 nM

Molecule: CNc1nc2[nH]nc(-c3cccc([C@H](c4nncn4C)C4CCC4)c3)c2cc1C(F)(F)F [E2]
Result: 2650 nM

Molecule: C[C@H](NC1CCC1)c1nc(C(F)(F)F)cc2c(-c3cccc(C4(Cc5nncn5C)COC4)c3)n[nH]c12
Result: 7.3 nM

* * *

Reported Kd values follow for various molecules
target: WT CBL-B (36-427) (Homo sapiens, UniProt Q13191); construct: N-terminal biotinylated WT CBL-B (36-427) and C-CBL (46-435) were captured on a streptavidin (SA) coated sensor chip; experiment: Surface Plasmon Resonance (SPR) assay, binding affinity and kinetics, CBL-B; conditions: SPR at 10° C., biotinylated WT CBL-B (36-427) on streptavidin chip; geometric mean; read-out: CBL-B SPR Kd (nM) GMean

Molecule: CN[C@H](C)c1nc(C(F)(F)F)cc2c(-c3cccc(C4(Cc5nncn5C)COC4)c3)n[nH]c12 (single isomer, unassigned)
Kd: 10 nM
--
Molecule: Cn1cnnc1CC1(c2cccc(-c3n[nH]c4c(CN[C@H]5CCC(F)(F)C5)nc(C(F)(F)F)cc34)c2)COC1
Kd: 7.5 nM
--
Molecule: Cn1cnnc1[C@@H](c1cccc(-c2n[nH]c3c(CN[C@H]4C[C@H](O)C4)nc(C(F)(F)F)cc23)c1)C1CCC1
Kd: 21.9 nM
--
Molecule: CC(NC1CC2(COC2)C1)c1nc(C(F)(F)F)cc2c(-c3cccc([C@H](c4nncn4C)C4CCC4)c3)n[nH]c12 (single isomer, unassigned) [Example C98]
Kd: 11.3 nM
--
Molecule: CN1CC[C@H](N(C)c2nc(C(F)(F)F)cc3c(-c4cccc([C@H](c5nncn5C)C5CCC5)c4)n[nH]c23)C1
Kd: 16.1 nM
--
Molecule: Cn1cnnc1[C@@H](c1cccc(-c2n[nH]c3c(CN[C@H]4CCC[C@H]4O)nc(C(F)(F)F)cc23)c1)C1CCC1
Kd: 5.5 nM
